assay: Primary qHTS to identify inhibitors of SARS-CoV-2 cell entry (AID 1645846); settings: SARS-CoV-2 pseudovirus cell entry assay, luminescence; at 57.1 µM (top of the series) unless noted
Results filed as inconclusive are left out.
This section presents molecules with their documented activity change, negative = inhibition values.

Below, each entry is followed by its recorded activity change, negative = inhibition result.
O=C1CC2(CCCC2)CC(=O)N1CCCCN1CCN(c2ncccn2)CC1
0.863%
C[C@@H](C1=C(CCN(C)C)Cc2ccccc21)c1ccccn1
-25.9%
Cc1cc(=O)oc2cc(O)ccc12
-8.91%
COc1ccc(CN(CCN(C)C)c2ncccn2)cc1
-19.5%
NC(=O)CC[C@@H](N)C(=O)O
-8.52%
CC(=O)N[C@H]1[C@H]([C@H](O)[C@H](O)CO)OC(C(=O)O)=C[C@@H]1N=C(N)N
-0.176%

Note: attention shifts to another entry.
-- ask I have this molecule here, "NC(N)=NC(=O)c1nc(Cl)c(N)nc1N" , and I need its recorded activity change, negative = inhibition.
-- reply -0.658% [at 114 µM]
